Measured Target: rFVIII (Homo sapiens, UniProt P00451)
Sequence (P00451 20-2351): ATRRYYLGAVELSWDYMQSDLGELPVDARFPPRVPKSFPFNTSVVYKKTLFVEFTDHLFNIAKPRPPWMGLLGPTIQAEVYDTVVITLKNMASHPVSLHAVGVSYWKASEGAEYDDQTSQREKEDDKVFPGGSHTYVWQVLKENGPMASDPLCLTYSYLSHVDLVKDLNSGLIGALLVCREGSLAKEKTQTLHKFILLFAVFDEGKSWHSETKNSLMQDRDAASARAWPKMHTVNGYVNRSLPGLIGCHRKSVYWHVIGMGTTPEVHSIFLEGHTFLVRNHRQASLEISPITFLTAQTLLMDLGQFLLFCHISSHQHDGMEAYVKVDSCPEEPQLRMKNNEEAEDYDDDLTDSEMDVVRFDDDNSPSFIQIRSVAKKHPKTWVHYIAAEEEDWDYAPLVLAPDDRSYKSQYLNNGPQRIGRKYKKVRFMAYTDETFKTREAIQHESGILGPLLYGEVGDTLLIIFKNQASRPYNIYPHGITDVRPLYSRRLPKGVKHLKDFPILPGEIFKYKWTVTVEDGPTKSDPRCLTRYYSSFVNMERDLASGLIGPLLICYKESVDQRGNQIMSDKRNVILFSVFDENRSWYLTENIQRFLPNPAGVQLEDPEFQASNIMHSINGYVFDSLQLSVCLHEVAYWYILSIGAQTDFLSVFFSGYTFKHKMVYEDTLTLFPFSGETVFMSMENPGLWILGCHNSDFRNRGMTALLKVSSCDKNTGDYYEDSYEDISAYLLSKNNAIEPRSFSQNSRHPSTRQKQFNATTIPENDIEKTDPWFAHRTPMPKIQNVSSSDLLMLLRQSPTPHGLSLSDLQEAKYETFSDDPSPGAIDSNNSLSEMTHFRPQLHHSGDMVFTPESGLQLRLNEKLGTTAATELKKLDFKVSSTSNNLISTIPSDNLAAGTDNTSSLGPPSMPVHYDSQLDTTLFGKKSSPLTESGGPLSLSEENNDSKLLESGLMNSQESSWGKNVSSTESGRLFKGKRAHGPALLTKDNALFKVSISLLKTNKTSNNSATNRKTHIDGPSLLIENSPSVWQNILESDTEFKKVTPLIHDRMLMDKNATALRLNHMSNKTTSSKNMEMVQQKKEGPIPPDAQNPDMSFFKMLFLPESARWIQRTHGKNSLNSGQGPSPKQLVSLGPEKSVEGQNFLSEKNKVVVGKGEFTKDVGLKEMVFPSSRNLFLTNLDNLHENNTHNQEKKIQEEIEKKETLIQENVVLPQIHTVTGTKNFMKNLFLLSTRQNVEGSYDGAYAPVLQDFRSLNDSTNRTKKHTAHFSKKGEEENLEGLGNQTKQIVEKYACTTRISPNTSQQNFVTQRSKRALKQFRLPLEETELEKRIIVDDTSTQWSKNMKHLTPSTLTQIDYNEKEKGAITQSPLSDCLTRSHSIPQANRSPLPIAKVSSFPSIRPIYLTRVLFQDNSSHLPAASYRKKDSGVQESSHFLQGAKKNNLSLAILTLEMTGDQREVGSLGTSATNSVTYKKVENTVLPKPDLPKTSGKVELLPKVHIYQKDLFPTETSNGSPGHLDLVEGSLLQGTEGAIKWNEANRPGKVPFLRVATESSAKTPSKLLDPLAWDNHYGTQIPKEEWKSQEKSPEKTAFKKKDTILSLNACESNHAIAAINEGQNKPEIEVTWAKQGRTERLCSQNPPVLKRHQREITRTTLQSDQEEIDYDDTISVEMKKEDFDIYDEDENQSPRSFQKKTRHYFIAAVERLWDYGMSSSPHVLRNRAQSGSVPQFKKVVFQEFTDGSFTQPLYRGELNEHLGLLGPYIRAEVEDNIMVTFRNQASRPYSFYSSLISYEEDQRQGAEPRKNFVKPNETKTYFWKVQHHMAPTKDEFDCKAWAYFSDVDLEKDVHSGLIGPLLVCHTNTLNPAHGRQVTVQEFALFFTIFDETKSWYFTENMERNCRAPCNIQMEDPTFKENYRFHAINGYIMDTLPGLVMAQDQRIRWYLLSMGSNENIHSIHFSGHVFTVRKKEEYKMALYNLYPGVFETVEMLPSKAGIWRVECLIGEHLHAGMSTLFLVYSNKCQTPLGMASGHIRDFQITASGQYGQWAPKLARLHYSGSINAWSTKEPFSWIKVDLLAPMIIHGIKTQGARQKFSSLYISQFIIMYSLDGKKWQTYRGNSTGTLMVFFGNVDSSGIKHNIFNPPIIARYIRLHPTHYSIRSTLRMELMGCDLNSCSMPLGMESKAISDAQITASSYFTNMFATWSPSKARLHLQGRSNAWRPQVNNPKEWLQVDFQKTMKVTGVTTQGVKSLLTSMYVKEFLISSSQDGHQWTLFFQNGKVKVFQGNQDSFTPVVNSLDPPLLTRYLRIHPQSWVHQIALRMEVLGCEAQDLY
Sequence (P00451 1668-2351 limits assumed): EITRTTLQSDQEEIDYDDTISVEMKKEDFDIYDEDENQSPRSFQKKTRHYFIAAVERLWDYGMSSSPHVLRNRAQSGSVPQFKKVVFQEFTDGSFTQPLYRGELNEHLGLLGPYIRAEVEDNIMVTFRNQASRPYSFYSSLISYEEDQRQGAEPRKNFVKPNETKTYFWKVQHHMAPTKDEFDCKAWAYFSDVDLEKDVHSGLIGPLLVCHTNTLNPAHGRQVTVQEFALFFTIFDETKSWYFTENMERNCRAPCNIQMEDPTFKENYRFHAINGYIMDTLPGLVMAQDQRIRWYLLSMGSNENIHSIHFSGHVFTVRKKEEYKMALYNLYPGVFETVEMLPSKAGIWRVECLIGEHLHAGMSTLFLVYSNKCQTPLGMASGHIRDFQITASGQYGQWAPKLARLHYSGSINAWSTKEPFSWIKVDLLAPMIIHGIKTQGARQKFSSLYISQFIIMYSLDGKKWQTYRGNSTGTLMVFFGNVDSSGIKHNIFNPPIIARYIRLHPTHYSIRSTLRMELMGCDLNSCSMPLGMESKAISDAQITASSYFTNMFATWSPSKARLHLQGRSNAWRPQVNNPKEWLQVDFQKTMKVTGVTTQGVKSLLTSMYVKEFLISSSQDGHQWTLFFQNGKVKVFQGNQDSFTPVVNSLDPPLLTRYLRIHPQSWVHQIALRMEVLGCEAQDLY
Experiment Notes: rFVIII activity recovery from peptide columns by chromogenic substrate assay (COATEST)
Type: biochemical
Condition Description: Table 7; rFVIII activity in fraction
Reported Property: Flow through IU (IU)

> print(dat)
                 substance                        measured.target  reported.property  endpoint.value
1  1 (KPNPLA) [compound 1]  rFVIII (Homo sapiens, UniProt P00451)    Flow through IU            0.03
2  5 (LNWKYG) [compound 5]  rFVIII (Homo sapiens, UniProt P00451)    Flow through IU             0.0
3  2 (RNPPNN) [compound 2]  rFVIII (Homo sapiens, UniProt P00451)    Flow through IU             0.4
4  6 (HYWFYK) [compound 6]  rFVIII (Homo sapiens, UniProt P00451)    Flow through IU             0.0
5  7 (IRFYSE) [compound 7]  rFVIII (Homo sapiens, UniProt P00451)    Flow through IU             0.0

* * *

Measured Target: rFVIII (Homo sapiens, UniProt P00451)
Experiment Notes: column format binding assay, rFVIII mass per fraction by sandwich capture ELISA for the light chain
Condition Description: Table 6
Reported Property: Flow through % total (%)

> print(dat)
                    substance                        measured.target     reported.property  endpoint.value
 1    9 (FALPGR) [compound 9]  rFVIII (Homo sapiens, UniProt P00451)  Flow through % total               0
 2  19 (FHFGLQ) [compound 19]  rFVIII (Homo sapiens, UniProt P00451)  Flow through % total               0
 3  22 (FVFLVR) [compound 22]  rFVIII (Homo sapiens, UniProt P00451)  Flow through % total               0
 4  21 (HFQIFG) [compound 21]  rFVIII (Homo sapiens, UniProt P00451)  Flow through % total               0
 5  12 (QRLIQF) [compound 12]  rFVIII (Homo sapiens, UniProt P00451)  Flow through % total               0
 6  13 (KAQETW) [compound 13]  rFVIII (Homo sapiens, UniProt P00451)  Flow through % total               7
 7  15 (VYGVGG) [compound 15]  rFVIII (Homo sapiens, UniProt P00451)  Flow through % total              42
 8  20 (WHHHRG) [compound 20]  rFVIII (Homo sapiens, UniProt P00451)  Flow through % total               0
 9  10 (AFVRSL) [compound 10]  rFVIII (Homo sapiens, UniProt P00451)  Flow through % total               0
10  14 (EPRVIG) [compound 14]  rFVIII (Homo sapiens, UniProt P00451)  Flow through % total              66
11  11 (NAIFQW) [compound 11]  rFVIII (Homo sapiens, UniProt P00451)  Flow through % total               7

* * *

Measured Target: rFVIII (Homo sapiens, UniProt P00451)
Experiment Notes: rFVIII activity recovery from peptide columns by chromogenic substrate assay (COATEST)
Format: biochemical
Condition Description: Table 7
Reported Property: 0.5M CaCl2 IU (IU)

> print(dat)
                 substance  endpoint.value
1  1 (KPNPLA) [compound 1]            32.8
2  7 (IRFYSE) [compound 7]            40.6
3  2 (RNPPNN) [compound 2]            51.6
4  5 (LNWKYG) [compound 5]            36.3
5  6 (HYWFYK) [compound 6]            59.4

* * *

Measured Target: rFVIII (Homo sapiens, UniProt P00451)
Experiment Notes: column format binding assay, rFVIII mass per fraction by sandwich capture ELISA for the light chain
Condition Description: Table 5
Reported 2% acetic acid ng by item:
Reported Property: 2% acetic acid ng (ng)

> print(dat)
                   substance  unit.tag  endpoint.value
1    2 (RNPPNN) [compound 2]        ng              31
2  18 (WLWSHN) [compound 18]        ng             760
3  16 (WRRHRY) [compound 16]        ng            2550
4    6 (HYWFYK) [compound 6]        ng             160
5  17 (FYRFWN) [compound 17]        ng            2336
6    5 (LNWKYG) [compound 5]        ng             125
7    7 (IRFYSE) [compound 7]        ng              77
8    1 (KPNPLA) [compound 1]        ng              61
9    4 (FRPHWA) [compound 4]        ng             160

* * *

Measured Target: rFVIII (Homo sapiens)
Experiment Notes: rFVIII activity recovery from peptide columns by chromogenic substrate assay (COATEST)
Assay type: biochemical
Condition Description: Table 8
We begin with a simple list: items and their reported 0.5M CaCl2 IU.
Reported Property: 0.5M CaCl2 IU (IU)

> print(dat)
                    substance  endpoint.value
 1    9 (FALPGR) [compound 9]            68.9
 2  13 (KAQETW) [compound 13]            48.3
 3  10 (AFVRSL) [compound 10]            53.1
 4  19 (FHFGLQ) [compound 19]             9.9
 5  21 (HFQIFG) [compound 21]            11.4
 6  12 (QRLIQF) [compound 12]            45.1
 7  15 (VYGVGG) [compound 15]            27.2
 8  22 (FVFLVR) [compound 22]             0.0
 9  20 (WHHHRG) [compound 20]             0.4
10  11 (NAIFQW) [compound 11]            54.4
11  14 (EPRVIG) [compound 14]            14.7

* * *

Measured Target: rFVIII (Homo sapiens)
Experiment Notes: rFVIII activity recovery from peptide columns by chromogenic substrate assay (COATEST)
Assay type: biochemical
Condition Description: Table 8; rFVIII activity in fraction
Catalogue of Flow through IU values
Reported Property: Flow through IU (IU)

> print(dat)
                    substance  endpoint.value
 1  12 (QRLIQF) [compound 12]             0.0
 2  13 (KAQETW) [compound 13]             0.8
 3  10 (AFVRSL) [compound 10]             0.0
 4  20 (WHHHRG) [compound 20]             0.0
 5  22 (FVFLVR) [compound 22]             0.0
 6  11 (NAIFQW) [compound 11]             2.5
 7    9 (FALPGR) [compound 9]             0.0
 8  14 (EPRVIG) [compound 14]            42.9
 9  15 (VYGVGG) [compound 15]            17.3
10  21 (HFQIFG) [compound 21]             0.0
11  19 (FHFGLQ) [compound 19]             0.5

* * *

Measured Target: rFVIII (Homo sapiens)
Experiment Notes: column format binding assay, rFVIII mass per fraction by sandwich capture ELISA for the light chain
Condition Description: Table 5; 10,000 ng rFVIII in 1:10 PPF injected, 5° C.
Below is a list of entries, each paired with its recorded log10(Flow through ng) value.
Reported Property: log10(Flow through ng) (log10 of the value in ng)

> print(dat)
                   substance  endpoint.value
1  17 (FYRFWN) [compound 17]            2.10
2  18 (WLWSHN) [compound 18]            0.90
3    4 (FRPHWA) [compound 4]            2.35
4    6 (HYWFYK) [compound 6]            2.02
5  16 (WRRHRY) [compound 16]            1.75
6    2 (RNPPNN) [compound 2]            2.65
7    1 (KPNPLA) [compound 1]            2.77
8    7 (IRFYSE) [compound 7]            2.36
9    5 (LNWKYG) [compound 5]            1.40

Origin of the recorded values: patent US6191256A
